Target: Kappa-type opioid receptor (Cavia porcellus, UniProt P41144)
Sequence (P41144 whole entry): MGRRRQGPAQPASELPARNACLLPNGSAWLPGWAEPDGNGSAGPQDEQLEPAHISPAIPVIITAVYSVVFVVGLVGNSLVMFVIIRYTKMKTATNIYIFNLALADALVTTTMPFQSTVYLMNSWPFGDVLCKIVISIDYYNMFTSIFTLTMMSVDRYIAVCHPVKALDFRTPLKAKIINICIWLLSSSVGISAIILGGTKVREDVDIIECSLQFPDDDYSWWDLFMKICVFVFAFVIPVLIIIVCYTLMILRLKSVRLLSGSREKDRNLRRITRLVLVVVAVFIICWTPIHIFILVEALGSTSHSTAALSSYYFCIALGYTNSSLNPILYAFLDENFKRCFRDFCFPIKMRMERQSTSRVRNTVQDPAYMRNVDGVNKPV
T if Ki is below 0.1 µM. F if not; exact matches included in F.

Observe how each entry below is paired with its result.
> print(dat)
                                   compound                               test.target  assigned.label
1  O=CN1CC[C@]23CC(=O)CC[C@H]2[C@H]1Cc1c(O)ccc(O)c13  Kappa-type opioid receptor (Cavia porcellus, UniProt P41144)               F
2  COC1=CCC2=C(CCNC2Cc2ccccc2O)C1 (stereo not given)  Kappa-type opioid receptor (Cavia porcellus, UniProt P41144)               F
3  C=CCN1CC[C@]23CC(=O)CC[C@H]2[C@H]1Cc1cccc(OC)c13  Kappa-type opioid receptor (Cavia porcellus, UniProt P41144)               F
4  O=CN1CC[C@]23CC(=O)CC[C@H]2[C@H]1CC1C(=O)C=CC(=O)C13 (stereo not given in full)  Kappa-type opioid receptor (Cavia porcellus, UniProt P41144)               T
5  C=CCN1CC[C@]23CC(=O)CC[C@@]2(OC)[C@H]1Cc1cccc(OC)c13  Kappa-type opioid receptor (Cavia porcellus, UniProt P41144)               F
6  COc1cccc2c1[C@]13CCN(C)[C@H](C2)[C@]1(OC)CCC(=O)C3  Kappa-type opioid receptor (Cavia porcellus, UniProt P41144)               F
7  CCO[C@@]12CCC(=O)C[C@@]13CCN(C)[C@@H]2Cc1cccc(O)c13  Kappa-type opioid receptor (Cavia porcellus, UniProt P41144)               T
8  COC1CCC2C(Cc3cccc(O)c3)=NCCC2C1 (stereo not given)  Kappa-type opioid receptor (Cavia porcellus, UniProt P41144)               F

Exercise: Is the reported Ki for CCO[C@@]12CCC(=O)[C@]3(C)Oc4c(O)ccc5c4[C@@]31CCN(C)[C@@H]2C5 strictly below 0.1 µM?
Key: T

Exercise: Is the reported Ki for O=CN1CC[C@]23c4c5cccc4O[C@H]2C(=O)CC[C@H]3[C@H]1C5 strictly below 0.1 µM?
Key: F
